Assay: modulators of CIT2-GFP expression in yeast, confirmation, S. cerevisiae, GFP fusion, cherry picks, mother/daughter gates (AID 2274)
Details: S. cerevisiae CIT2-GFP strain, flow cytometry, 3 h; measured here: daughter cell gate; at 10 µM; stronger effect = higher value

[
  {
    "MOLECULE": "COc1ccc(/C=N/Nc2nnc(C)n2N)cc1OC(C)=O",
    "U": "%",
    "GFP response, % of DMSO": 104
  },
  {
    "MOLECULE": "Fc1cccc(Cl)c1Cn1ncc2ccccc21",
    "U": "%",
    "GFP response, % of DMSO": 97.4
  },
  {
    "MOLECULE": "CC(=O)Nc1ccc(NC(=O)c2ccccc2F)cc1",
    "U": "%",
    "GFP response, % of DMSO": 101
  },
  {
    "MOLECULE": "COc1cc(-c2noc(-c3cccc(Cl)c3)n2)cc(OC)c1OC",
    "U": "%",
    "GFP response, % of DMSO": 101
  },
  {
    "MOLECULE": "O=C(Oc1oc(-c2ccco2)nc1C=Nc1ccc(Cl)cc1)c1ccco1",
    "U": "%",
    "GFP response, % of DMSO": 95.2
  },
  {
    "MOLECULE": "COc1ccc(C(=O)NC(=S)NNC(=O)CCc2ccccc2)cc1",
    "U": "%",
    "GFP response, % of DMSO": 104
  },
  {
    "MOLECULE": "O=C(CSc1cccc[n+]1[O-])c1cc2ccccc2o1",
    "U": "%",
    "GFP response, % of DMSO": 111
  },
  {
    "MOLECULE": "Cc1cc(N=Nc2ccccc2C(=O)O)c(C)c(C)c1O",
    "U": "%",
    "GFP response, % of DMSO": 129
  },
  {
    "MOLECULE": "CCOc1ccc(N2C(=O)C(Cl)=C(Nc3ccccc3O)C2=O)cc1",
    "U": "%",
    "GFP response, % of DMSO": 100
  },
  {
    "MOLECULE": "CCOC(=O)CNc1c(-c2ccc(OC)cc2)nc2ccc(Cl)cn12",
    "U": "%",
    "GFP response, % of DMSO": 93.2
  },
  {
    "MOLECULE": "O=C1/C(=C/c2ccccn2)COc2ccccc21",
    "U": "%",
    "GFP response, % of DMSO": 99.3
  },
  {
    "MOLECULE": "COc1ccc(C(=O)Nc2c(N)nc[nH]c2=O)cc1",
    "U": "%",
    "GFP response, % of DMSO": 103
  },
  {
    "MOLECULE": "O=S(=O)(c1ccc(C2CCCCC2)cc1)N1CCOCC1",
    "U": "%",
    "GFP response, % of DMSO": 93.8
  },
  {
    "MOLECULE": "COCCn1c(=N)c(C(=O)NCc2ccco2)cc2c(=O)n3ccccc3nc21",
    "U": "%",
    "GFP response, % of DMSO": 97.6
  },
  {
    "MOLECULE": "O=C(NCc1ccccc1)c1nc(S(=O)(=O)Cc2ccccc2)ncc1Cl",
    "U": "%",
    "GFP response, % of DMSO": 93.2
  },
  {
    "MOLECULE": "Cc1ccccc1N1C(=O)C(Cl)=C(N2CCN(c3ccccc3)CC2)C1=O",
    "U": "%",
    "GFP response, % of DMSO": 94.8
  },
  {
    "MOLECULE": "O=C1c2ccccc2C2=Nc3ccccc3SC(c3cccc(F)c3)C12 (stereo not drawn)",
    "U": "%",
    "GFP response, % of DMSO": 106
  },
  {
    "MOLECULE": "Cc1[nH]c2ccccc2c1C(=O)C(C)OC(=O)C1CCC1 (stereo not drawn)",
    "U": "%",
    "GFP response, % of DMSO": 103
  }
]
